# assayExplanation: Confirmatory Assay for General miRNAs Modulators and/or Inhibitors/Activators of miR-21
# testParameters: HeLa miR-21 FLuc reporter, luminescence, 48 h; series mostly up to 38.3 µM
Inconclusive results are not listed. Active and inactive are the calls of the source. Calls follow the shape of the dose curve; as a rule, active = well fitted inhibition curve with a large enough effect; inconclusive = small, poorly fitted or top-dose-only effect, or effect the other way; inactive = no such curve, though single readings can be large or run the other way.
endpointName: Potency

Cc1ccc(SCC(=O)Nc2ccc3oc(-c4ccc(F)cc4)nc3c2)cc1 ... 15.9 µM (active)
O=S(=O)(c1ccc(F)cc1)n1ccc(-c2cnc(-c3ccccc3)s2)n1 ... 5.65 µM (active)
Cc1cccc(OCc2nnc(SCC(=O)Nc3ccc(N4CCOCC4)cc3)o2)c1 ... inactive
Cn1c(=O)[nH]c2cc(-c3noc(-c4ccc(F)cc4)n3)ccc21 ... 10 µM (active)
CC(C)C(=O)Nc1nc2c(s1)CC(C(C)(C)C)CC2 (centres undefined) ... 2.83 µM (active)
Cc1ccc(-c2nsc(SCC(=O)Nc3ccc4c(c3)OCO4)n2)cc1 ... 17.9 µM (active)

Task: Consider the compound `COc1ccc(OCC(=O)Nc2ccc(-c3nc4cc(Cl)ccc4o3)cc2)cc1` and give its measured Potency.
Output: 0.503 µM (active)

Task: Consider the compound `Cc1cccc(-n2nnc(-c3nc(-c4cccs4)no3)c2N)c1` and give its measured Potency.
Output: 0.634 µM (active)

Task: Consider the compound `COc1cccc(NC(=O)CSc2nnc(-c3cccs3)o2)c1` and give its measured Potency.
Output: 6.34 µM (active)

Task: Consider the compound `Cc1c(-c2nnc(SCC(=O)Nc3ccccc3F)o2)nnn1-c1ccc(F)cc1` and give its measured Potency.
Output: 3.56 µM (active)

Task: Consider the compound `COc1ccc(NC(=O)CSc2nnc(-c3cccs3)o2)cc1` and give its measured Potency.
Output: 10 µM (active)

Task: Consider the compound `Clc1ccc(-n2ncc3c(NCc4ccccn4)ncnc32)cc1` and give its measured Potency.
Output: 4.49 µM (active)

Task: Consider the compound `O=C(CSc1nnc(-c2ccccn2)o1)Nc1cccc(Cl)c1` and give its measured Potency.
Output: 2.52 µM (active)

Task: Consider the compound `COc1ccc(CNc2n[nH]c(-c3ccco3)n2)cc1OC` and give its measured Potency.
Output: inactive
